Source: the supplement of paper PMC5919970

# Tested on: TYKNU
# test: fractional viability relative to vehicle; higher = less growth inhibition
# condition: 10uM; 72 h; genotype: sgCTRLA1 (non-targeting control)
Where a name gives a salt, the structure may show the parent alone. In all, about 2,000 compounds were measured (“fractional viability relative to vehicle”: median about 0.91, lowest 2% from about 0.045 on). Many of the other results were omitted from the sample, so the lowest values are more common in it than they were.
The molecules listed here are annotated with their fractional viability.
endpoint_label: fractional viability

# molecule, reported_value
records = [
    ("CNC(=O)c1cccc(-c2ccc3c(N4CCOC[C@@H]4C)nc(N4CCOC[C@@H]4C)nc3n2)c1", 0.237),
    ("O=C1NC(=O)/C(=C/c2cccc(C(F)(F)F)c2)S1", 0.786),
    ("OC[C@H]1O[C@@H](OCCc2ccc(O)cc2)[C@H](O)[C@@H](O)[C@@H]1O [Salidroside]", 1.07),
    ("c1nc2c(NC3CCCCC3)nc(Nc3ccc(N4CCOCC4)cc3)nc2[nH]1 [Reversine]", 0.216),
    ("O=C(C[S+]([O-])Cc1ccco1)NC/C=C\\COc1cc(CN2CCCCC2)ccn1 (stereo not drawn) [Lafutidine]", 1.06),
    ("O=C(NC1CCN(CCCCC2(C(=O)NCC(F)(F)F)c3ccccc3-c3ccccc32)CC1)c1ccccc1-c1ccc(C(F)(F)F)cc1 [Lomitapide Mesylate]", 0.0328),
    ("C=CC(=O)Nc1cc(Nc2nccc(-c3cn(C)c4ccccc34)n2)c(OC)cc1N(C)CCN(C)C", 0.0512),
    ("CN(NC(=O)CC(=O)NN(C)C(=S)c1ccccc1)C(=S)c1ccccc1 [Elesclomol (STA-4783)]", 0.0222),
    ("Clc1cccc(CN=C2Nc3ccccc3NC23CCNCC3)c1 [Liproxstatin-1]", 0.651),
    ("C=CC(=O)Nc1cccc(Nc2nc(Nc3ccc(NC4CN(CCF)C4)cc3OC)ncc2C(F)(F)F)c1", 0.154),
    ("O=C(O)c1ccccc1 [Benzoic Acid]", 0.958),
    ("O=C1CCC[C@@H]2[C@H]3CCC[N+]4([O-])CCC[C@@H](CN12)[C@@H]34 (stereo partly drawn) [Oxymatrine]", 1.1),
    ("Cc1nnc(C(C)C)n1C1C[C@H]2CC[C@@H](C1)N2CC[C@H](NC(=O)C1CCC(F)(F)CC1)c1ccccc1 (stereo in doubt) [Maraviroc]", 1.03),
    ("CN1CCC(Nc2nc(Nc3ccc(Oc4ccccc4)cc3)c3c(=O)[nH]cc(Br)c3n2)CC1", 0.0109),
    ("CC(C)OC(=O)C1=CN(C(=O)c2ccc(F)c(F)c2)CC(C)(C)c2c1[nH]c1ccccc21", 0.965),
    ("CN1CCCN(C(=O)c2cccc(-c3ccc(/C=C4/C(=O)Nc5ccc(Cl)cc54)o3)c2)CC1", 0.00867),
    ("CN1CCN(C(=O)c2cc3cc(Cl)ccc3[nH]2)CC1", 1.16),
    ("CNC(=O)c1ccccc1Oc1nc(Nc2cc(OC)c(OC)c(OC)c2)ncc1Br", 0.589),
]

====

The compounds listed here are annotated with their fractional viability.
# System: TYKNU
# test: fractional viability relative to vehicle; higher = less growth inhibition
# condition: 2uM; 72 h; genotype: DNM1L knockout (sgDNM1L #1)
Counter-ions that a name gives are not always drawn. The full ranking holds about 2,000 compounds; the median of “fractional viability relative to vehicle” is about 0.91, and the lowest 2% start at about 0.045. The sample as a whole holds a higher share of the lowest values than the screen did.
endpoint_label: fractional viability

# compound, reported_value
records = [
    ("COc1cc2ncnc(Sc3nnc(C)s3)c2cc1OC", 0.747),
    ("CCCCCCCCCCCCc1ccc(S(=O)(=O)Nc2nncs2)cc1", 0.997),
    ("Cc1nnc(C(=O)NC(C)(C)c2nc(C(=O)NCc3ccc(F)cc3)c(O)c(=O)n2C)o1", 0.979),
    ("NC(=O)c1ccc(-c2nc(-c3ccccn3)c(-c3ccc4c(c3)OCO4)[nH]2)cc1", 1.32),
    ("CC(C)(O)c1ccccc1CC[C@@H](SCC1(CC(=O)O)CC1)c1cccc(/C=C/c2ccc3ccc(Cl)cc3n2)c1 [Montelukast Sodium]", 0.809),
    ("CCCCCCCCc1ccc(CCC(N)(CO)CO)cc1 [Fingolimod (FTY720) HCl]", 0.722),
    ("CC[C@@H]([C@H](C)O)n1ncn(-c2ccc(N3CCN(c4ccc(OC[C@@H]5CO[C@@](Cn6cncn6)(c6ccc(F)cc6F)C5)cc4)CC3)cc2)c1=O", 0.919),
    ("CNC[C@@H](O)c1ccc(O)c(O)c1", 0.842),
]

====

# Test system: TYKNU
# test: fractional viability relative to vehicle; higher = less growth inhibition
# condition: 2uM; 72 h; genotype: sgCTRLA1 (non-targeting control)
Structures can show the parent of a compound that is named as a salt. Over roughly 2,000 compounds, “fractional viability relative to vehicle” has its median near 0.91; the lowest 2% begin near 0.045. The sample as a whole holds a higher share of the lowest values than the screen did.
The compounds listed here are annotated with their fractional viability.

# compound, fractional viability
data = [
    ("CC[C@]12C=CCN3CC[C@@]4(c5cc([C@@]6(C(=O)OC)C[C@@H]7C[C@@H](C(C)(F)F)CN(Cc8c6[nH]c6ccccc86)C7)c(OC)cc5N(C)[C@H]4[C@@](O)(C(=O)OC)[C@@H]1OC(C)=O)[C@@H]32 [Vinflunine Tartrate]", 0.144),
    ("COc1cc(/C=C/C(=O)N2CCN(CC(=O)N3CCCC3)CC2)cc(OC)c1OC [Cinepazide maleate]", 0.973),
    ("O=C(CCCCCN1C(=O)c2cccc3cccc(c23)C1=O)NO [Scriptaid]", 0.51),
    ("O=C(Nc1c(Cl)cncc1Cl)c1ccc(OC(F)F)c(OCC2CC2)c1 [Roflumilast]", 0.959),
    ("C#CC[C@H](c1nc2cc(Cl)ccc2c(=O)n1Nc1ccccc1)N(CCCN)C(=O)c1cccc(Cl)c1F", 0.25),
    ("CC(C)(O)c1ccccc1CC[C@@H](SCC1(CC(=O)O)CC1)c1cccc(/C=C/c2ccc3ccc(Cl)cc3n2)c1 [Montelukast Sodium]", 1.13),
    ("C/C(=N\\NC(=O)c1cccc(S(=O)(=O)N2CCOCC2)c1)c1cc(Cl)ccc1O", 0.356),
]

====

# Tested on: TYKNU
# test: fractional viability relative to vehicle; higher = less growth inhibition
# condition: 2uM; 72 h; genotype: sgCTRLA1 (non-targeting control)
Counter-ions that a name gives are not always drawn. In all, about 2,000 compounds were measured (“fractional viability relative to vehicle”: median about 0.91, lowest 2% from about 0.045 on). The sample as a whole holds a higher share of the lowest values than the screen did.
The compounds listed here are annotated with their fractional viability.
endpoint_label: fractional viability

# compound, reported_value
rows = [
    ("C=C[C@]1(C)C[C@@H](OC(=O)CSC(C)(C)CNC(=O)[C@H](N)C(C)C)[C@]2(C)[C@H](C)CC[C@]3(CCC(=O)[C@H]32)[C@@H](C)[C@@H]1O [Valnemulin HCl]", 0.236),
    ("Cc1ncc([N+](=O)[O-])n1CC(O)CCl (centres undefined)", 1.24),
    ("CCCCCCCCCCCCCCCCO", 1.09),
    ("CCCCCCCCCCCC[N+](C)(C)CCOc1ccccc1 [Domiphen Bromide]", 0.882),
]

====

# System: TYKNU
# test: fractional viability relative to vehicle; TYKNU is a high-grade serous ovarian cancer line; higher = less growth inhibition
# condition: 2uM; 72 h; genotype: sgCTRLA1 (non-targeting control)
Where a name gives a salt, the structure may show the parent alone. Over roughly 2,000 compounds, “fractional viability relative to vehicle” has its median near 0.91; the lowest 2% begin near 0.045. The entries come from a sample that favours the lowest values as a whole.
endpoint_label: fractional viability

# compound, reported_value
records = [
    ("COc1cccc(C=NCCN=Cc2cccc(OC)c2[O-])c1[O-].[Cl-].[Mn+3]", 0.978),
    ("NC(=O)c1ccc(-c2nc(-c3ccccn3)c(-c3ccc4c(c3)OCO4)[nH]2)cc1", 1.08),
    ("O=S(=O)(NCCSSCCNS(=O)(=O)c1cc(Cl)ccc1Cl)c1cc(Cl)ccc1Cl", 0.899),
    ("CC[C@H]1OC(=O)C[C@@H](O)[C@H](C)[C@@H](O[C@@H]2O[C@H](C)[C@@H](O)[C@H](N(C)C)[C@H]2O)[C@@H](CCN2C[C@H](C)C[C@H](C)C2)C[C@@H](C)C(=O)/C=C/C(C)=C/[C@@H]1CO[C@@H]1O[C@H](C)[C@@H](O)[C@@H](OC)[C@H]1OC", 1.13),
    ("CC(=O)c1cc2c(o1)C(=O)c1ccccc1C2=O", 0.0196),
    ("O=C(O)c1cc(=O)c2ccccc2o1", 1.07),
    ("COc1cc2nccc(Oc3ccc(NC(=O)C4(C(=O)Nc5ccc(F)cc5)CC4)cc3)c2cc1OC", 1.17),
    ("CN1CCN(S(=O)(=O)c2ccc(-c3cnc(N)c(C(=O)Nc4cccnc4)n3)cc2)CC1", 1.08),
    ("O=C(Nc1cccc(Cl)c1)Nc1ncc(CCNc2ncnc3ccsc23)s1 [SNS-314 Mesylate]", 0.722),
    ("O=C(/C=C/C=C/c1ccc2c(c1)OCO2)N1CCCCC1", 1.08),
    ("CCC[S+]([O-])c1ccc2[nH]c(NC(=O)OC)nc2c1 (stereo not given) [Albendazole Oxide]", 0.909),
    ("Cc1cc(C(O)=C2C(=O)C(=O)N(CCCN3CCOCC3)C2c2ccncc2)ccc1OCc1ccccc1 (stereo not given)", 0.984),
    ("O=C(O)c1cc2cccc([N+](=O)[O-])c2[nH]1", 1.09),
    ("C[C@@H](Nc1cc(F)cc(F)c1)c1cc(C(=O)N(C)C)cc2c(=O)cc(N3CCOCC3)oc12", 0.847),
    ("N#C/C(=C\\c1ccc(O)c(O)c1)C(=O)NCc1ccccc1", 1.01),
    ("COCC[n+]1c2c(n(Cc3cnccn3)c1C)C(=O)c1ccccc1C2=O [YM155 (Sepantronium Bromide)]", 0.0393),
    ("CN(C)C/C=C/C(=O)Nc1cc2c(Nc3ccc(F)c(Cl)c3)ncnc2cc1O[C@H]1CCOC1 [Afatinib (BIBW2992)]", 0.809),
    ("CCc1ccc(OCc2ccccc2C(=O)Nc2ccc3nc(C)cc(N)c3c2)cc1", 0.166),
    ("CC(C)n1nc(-c2ccc3oc(N)nc3c2)c2c(N)ncnc21", 0.191),
    ("CCN1C[C@H](C)n2c(c(O)c3c(=O)n(Cc4ccc(F)c(Cl)c4)nc(C(=O)NC)c32)C1=O", 1.2),
    ("CC1(C)C=C(CN2C/C(=C\\c3ccc(F)cc3)C(=O)/C(=C/c3ccc(F)cc3)C2)C(C)(C)N1O", 0.973),
    ("CN(C)c1ccc(-c2nc3ncc(Cl)c(N4CCN(CC(=O)Nc5nccs5)CC4)c3[nH]2)cc1", 0.937),
    ("COCCOc1ccc2c(c1)ncn2-c1ccc2cccc(N3CCC(N)CC3)c2n1", 0.893),
    ("COc1cc2c(Nc3ccc(NC(=O)c4ccccc4)cc3)ncnc2cc1OCCCN1CCOCC1", 0.959),
    ("CN(C)c1nc(N(C)C)nc(N(C)C)n1", 1.07),
    ("O=C(NNc1nc2cc(F)ccc2n2cccc12)c1cnccn1", 0.282),
    ("CCCC(=O)Nc1cccc(NC(=O)c2ccccc2Br)c1", 1.19),
    ("O=C1c2ccccc2C(=O)c2c1ccc(O)c2O", 1.1),
    ("CN1CCN(c2c(F)cc3c(=O)c(C(=O)O)cn4c3c2OCN4C)CC1", 1.21),
    ("NCc1c[nH]c(=S)n1[C@H]1CCc2c(F)cc(F)cc2C1 [Nepicastat (SYN-117) HCl]", 1.11),
    ("CN(C)C/C=C/C(=O)Nc1cc2c(Nc3ccc(F)c(Cl)c3)ncnc2cc1O[C@H]1CCOC1 [Afatinib (BIBW2992) Dimaleate]", 0.984),
    ("Cc1nc(N(C)C(=O)Cc2ccc(-c3ccccn3)cc2)sc1S(N)(=O)=O", 0.947),
    ("CC(C)C[C@H](NC(=O)CNC(=O)c1cc(Cl)ccc1Cl)B1OC(=O)C(CC(=O)O)(CC(=O)O)O1", 0.0935),
    ("Nc1[nH]nc2nnc(-c3c(-c4ccccc4)nn4ccccc34)cc12", 1.01),
    ("CC(C)(C)c1cc(C(=O)C(C#N)=NNc2cccc(Cl)c2)no1", 0.936),
]
